What Absorbance (450 nm) was measured for each of the following?
# TARGET UNDER TEST: recombinant cynomolgus monkey CD3ε/δ heterodimer (cynomolgus monkey) (UniProt Q95LI5)
# Sequence (Q95LI5 22-117, stated change not applied, chain 1 of 2): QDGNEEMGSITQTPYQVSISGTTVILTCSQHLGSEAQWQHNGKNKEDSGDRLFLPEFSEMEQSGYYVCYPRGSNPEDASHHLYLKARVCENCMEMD
# Sequence (Q95LI8 22-105, stated change not applied, chain 2 of 2, further chain): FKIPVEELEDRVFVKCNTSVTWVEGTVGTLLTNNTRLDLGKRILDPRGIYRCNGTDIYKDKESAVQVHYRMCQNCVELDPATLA
# PROCEDURE SUMMARY: ELISA, coated CD3ε/δ
Lab note: record just the number, no unit beside it.

Need Absorbance (450 nm), item D11 (antibody, human IgG1, lambda, L234A L235A, V domains shown) VH: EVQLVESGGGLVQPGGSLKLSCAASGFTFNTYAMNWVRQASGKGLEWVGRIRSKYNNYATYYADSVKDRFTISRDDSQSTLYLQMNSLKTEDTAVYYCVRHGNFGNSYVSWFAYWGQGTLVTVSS VL: QAVVTQEPSLTVSPGGTVTLTCRSSTGAVTTSNYANWVQQKPGQAPRTLIGGTNKRAPWTPARFSGSLLGGKAALTLSGAQPEDEAEYYCALWYSNLWVFGGGTKLTVLG
0.134

Input E09 (antibody, human IgG1, lambda, L234A L235A, V domains shown) VH: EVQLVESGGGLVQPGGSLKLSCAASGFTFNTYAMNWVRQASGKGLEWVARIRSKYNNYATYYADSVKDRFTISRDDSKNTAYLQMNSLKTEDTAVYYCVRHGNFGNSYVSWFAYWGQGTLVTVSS VL: QAVVTQEPSLTVSPGGTVTLTCRSSTGAVTTSNYANWVQQKPGQAPRTLIYGTNKRAPWTPARFSGSLLGGKAALTLSGAQPEDEAEYYCALWYSNLWVFGGGTKLTVLG
0.084

Input A07 (antibody, human IgG1, lambda, L234A L235A, V domains shown) VH: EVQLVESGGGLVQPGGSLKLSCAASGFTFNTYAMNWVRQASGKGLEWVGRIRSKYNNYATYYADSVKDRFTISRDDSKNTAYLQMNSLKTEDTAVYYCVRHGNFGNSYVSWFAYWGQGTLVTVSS VL: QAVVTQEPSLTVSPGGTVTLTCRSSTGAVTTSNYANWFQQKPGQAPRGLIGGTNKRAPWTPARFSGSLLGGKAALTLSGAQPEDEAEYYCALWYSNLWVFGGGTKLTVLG
2.55

Input D06 (antibody, human IgG1, lambda, L234A L235A, V domains shown) VH: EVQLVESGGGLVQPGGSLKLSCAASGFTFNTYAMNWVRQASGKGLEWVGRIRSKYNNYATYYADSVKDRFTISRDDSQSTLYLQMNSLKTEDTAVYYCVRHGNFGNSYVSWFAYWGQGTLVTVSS VL: QAVVTQEPSLTVSPGGTVTLTCRSSTGAVTTSNYANWFQQKPGQAPRGLIYGTNKRAPWTPARFSGSLLGDKAALTLSGAQPEDEAEYYCALWYSNLWVFGGGTKLTVLG
0.11

Input H16 (antibody, human IgG1, lambda, L234A L235A, V domains shown) VH: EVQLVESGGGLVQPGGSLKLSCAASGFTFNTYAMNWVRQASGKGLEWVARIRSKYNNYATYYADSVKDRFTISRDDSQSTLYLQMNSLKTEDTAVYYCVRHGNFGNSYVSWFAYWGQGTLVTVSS VL: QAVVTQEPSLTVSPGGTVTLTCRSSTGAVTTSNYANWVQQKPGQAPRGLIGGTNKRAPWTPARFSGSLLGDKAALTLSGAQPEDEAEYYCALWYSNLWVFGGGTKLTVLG
2.87
